Data provenance: patent US20170240637A1

Molecular target: T1, wild type 2Ig-B7H3-mFc (human, UniProt Q5ZPR3-2 29-248, limits assumed)
T1 construct: Q5ZPR3 canonical entry is the 4Ig isoform; the 2Ig form is its shorter isoform; also called 2Ig-B7H3-Fc; WT 2Ig-B7H3-Fc; not shown: mouse Fc
T1 sequence (looked up): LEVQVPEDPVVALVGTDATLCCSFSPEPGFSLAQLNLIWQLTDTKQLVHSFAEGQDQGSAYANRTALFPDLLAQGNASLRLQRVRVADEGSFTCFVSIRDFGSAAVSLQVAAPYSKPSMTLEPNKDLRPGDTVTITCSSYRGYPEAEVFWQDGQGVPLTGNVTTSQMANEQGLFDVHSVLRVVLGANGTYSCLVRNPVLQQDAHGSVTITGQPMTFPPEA
Assay: SPR, IgG on 2Ig-B7H3-mFc
// reported Kd for each item listed
I only need the number, in nM, no unit after it.

{"columns": ["BINDER", "REPORTED_RESULT"],
 "data": [
  ["hu8H9 3.1 IgG1 (antibody, V domains shown, also called clone 3.1) VH: QVQLVQSGAEVVKPGASVKLSCKTSGYTFTNYDINWVRQRPGQGLEWIGWIFPGDDSTQYNEKFKGKATLTTDTSTSTAYMELSSLRSEDTAVYFCARQTTGTWFAYWGQGTLVTVSS VL: EIVMTQSPATLSVSPGERVTLSCRASQSISDYLYWYQQKSHESPRLLIKYASQSISGIPARFSGSGSGSEFTLTINSVEPEDVGVYYCQNGHSFPLTFGQGTKLELKR", 6]
]}

Next binder, please.
Query block: Report Kd for hu8H9 H3L3 IgG1 (antibody, V domains shown) VH: QVQLVQSGAEVVKPGASVKLSCKASGYTFTNYDINWVRQRPEQGLEWIGWIFPGDGSTQYNEKFKGKATLTTDTSTSTAYMELSSLRSEDTAVYFCARQTTATWFAYWGQGTLVTVSS VL: EIVMTQSPATLSVSPGERVSLSCRASQSISDYLHWYQQKSHESPRLLIKYASQSISGIPARFSGSGSGSEFTLTINSVEPEDVGVYYCQNGHSFPLTFGQGTKLELKR
Result block: 7.5
